Molecular target: T1, cynomolgus monkey IL-6 (cynomolgus monkey, UniProt P79341 28-212, limits assumed)
T1 construct: also called HIS-cyIL-6
Test: SPR; periplasmic fraction; against parental 29B11
// 0.0 strictly below 1 fold in fold improvement kd; 1.0 otherwise

[[record]]
binder = "Fab 55C1 (Fab, V domains shown, VL-shuffled Fab of 29B11, periplasmic fraction; also called 55C1a) VH: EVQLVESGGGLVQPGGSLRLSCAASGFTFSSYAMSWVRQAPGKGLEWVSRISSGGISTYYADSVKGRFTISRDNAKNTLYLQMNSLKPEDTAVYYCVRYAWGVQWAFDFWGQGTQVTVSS VL: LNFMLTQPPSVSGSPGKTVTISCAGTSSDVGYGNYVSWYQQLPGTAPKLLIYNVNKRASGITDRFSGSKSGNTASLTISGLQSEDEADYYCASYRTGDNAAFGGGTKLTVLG"
qualitative_label = 1.0

[[record]]
binder = "Fab 55H1 (Fab, V domains shown, VL-shuffled Fab of 29B11, periplasmic fraction; also called 55H1c) VH: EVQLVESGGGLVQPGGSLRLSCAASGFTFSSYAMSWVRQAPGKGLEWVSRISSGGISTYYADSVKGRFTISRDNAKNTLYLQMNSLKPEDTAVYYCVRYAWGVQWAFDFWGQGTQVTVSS VL: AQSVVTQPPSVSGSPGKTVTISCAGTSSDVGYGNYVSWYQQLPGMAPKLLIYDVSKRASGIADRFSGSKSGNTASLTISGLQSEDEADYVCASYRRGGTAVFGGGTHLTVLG"
qualitative_label = 1.0

[[record]]
binder = "Fab 48C10 (Fab, V domains shown, VL-shuffled Fab of 29B11, periplasmic fraction) VH: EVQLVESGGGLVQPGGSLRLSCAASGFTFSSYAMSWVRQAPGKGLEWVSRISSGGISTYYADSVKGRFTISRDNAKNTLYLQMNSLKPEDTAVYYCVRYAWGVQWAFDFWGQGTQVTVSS VL: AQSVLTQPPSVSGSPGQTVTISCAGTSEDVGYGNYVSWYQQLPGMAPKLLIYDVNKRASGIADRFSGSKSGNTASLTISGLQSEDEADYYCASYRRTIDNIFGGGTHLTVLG"
qualitative_label = 1.0

[[record]]
binder = "Fab 55E2 (Fab, V domains shown, VL-shuffled Fab of 29B11, periplasmic fraction; also called 55E2b) VH: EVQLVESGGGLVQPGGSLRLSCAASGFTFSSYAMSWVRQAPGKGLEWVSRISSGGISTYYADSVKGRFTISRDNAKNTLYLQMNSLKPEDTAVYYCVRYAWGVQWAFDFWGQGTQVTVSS VL: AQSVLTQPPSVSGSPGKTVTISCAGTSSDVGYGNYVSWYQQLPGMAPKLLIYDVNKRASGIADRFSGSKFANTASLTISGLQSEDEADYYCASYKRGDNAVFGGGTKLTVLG"
qualitative_label = 1.0

[[record]]
binder = "Fab 47C2 (Fab, V domains shown, VL-shuffled Fab of 29B11, periplasmic fraction; also called 47C2 (R4)) VH: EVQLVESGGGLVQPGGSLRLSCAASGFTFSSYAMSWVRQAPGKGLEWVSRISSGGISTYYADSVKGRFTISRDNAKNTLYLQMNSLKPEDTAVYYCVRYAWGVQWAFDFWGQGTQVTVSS VL: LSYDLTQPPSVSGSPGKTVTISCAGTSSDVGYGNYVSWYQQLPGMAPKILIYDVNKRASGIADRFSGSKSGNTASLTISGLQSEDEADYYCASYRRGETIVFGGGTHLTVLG"
qualitative_label = 0.0

